target: Estrogen Receptor ERα (Homo sapiens); test: cell-based; conditions: effect
Sequence (P03372 311-547 limits assumed): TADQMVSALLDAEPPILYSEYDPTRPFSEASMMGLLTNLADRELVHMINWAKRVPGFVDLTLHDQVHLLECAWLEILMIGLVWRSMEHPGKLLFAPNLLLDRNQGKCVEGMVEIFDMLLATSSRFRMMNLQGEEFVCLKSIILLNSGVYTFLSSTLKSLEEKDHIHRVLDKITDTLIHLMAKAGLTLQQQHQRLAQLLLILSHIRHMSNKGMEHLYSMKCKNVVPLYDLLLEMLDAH
Provide the recorded EC10, ERα for the entries that follow.
Answer in µM, number only, no unit symbol.

Exercise: Return reported EC10, ERα. Input compound: CC1(C)C(O)C(C)(C)C1O (racemic) [r-TMCD]
Key: 12900

Exercise: Return reported EC10, ERα. Input compound: CC1(C)[C@H](O)C(C)(C)[C@H]1O [t-TMCD]
Key: 3030

Exercise: Return reported EC10, ERα. Input compound: CCC(C)(c1ccc(O)cc1)c1ccc(O)cc1 [BPB, 4,4'-(Butane-2,2-diyl)diphenol]
Key: 0.135

Exercise: Return reported EC10, ERα. Input compound: CC(C)(c1ccc(O)cc1)c1ccc(O)cc1 [BPA, 4,4'-(Propane-2,2-diyl)diphenol, reference compound]
Key: 0.37

Exercise: Return reported EC10, ERα. Input compound: Oc1ccc(Sc2ccc(O)cc2)cc1 [BPT, 4,4'-Thiodiphenol]
Key: 0.727

====

Provide the recorded IC10, linear for the entries that follow.
test system: MCF7 (ARE/MMP); conditions: MMP bioassay cytotoxicity; dosing range all; linear model
Could you respond with only the numeric value?

Exercise: State recorded IC10, linear with MCF7 (ARE/MMP), entry O=S(=O)(c1ccc(O)cc1)c1ccc(OCc2ccccc2)cc1 [BPS-MPE, 4-[4-(benzyloxy)benzenesulfonyl]phenol] , no comment.
Key: 1.88E-04

Exercise: State recorded IC10, linear with MCF7 (ARE/MMP), entry "CC(c1ccccc1)(c1ccc(O)cc1)c1ccc(O)cc1" , no comment.
Key: 2.54E-05

Exercise: State recorded IC10, linear with MCF7 (ARE/MMP), entry CC(C)(c1ccc(O)c(-c2ccccc2)c1)c1ccc(O)c(-c2ccccc2)c1 [BPPH, 2,2-Bis(2-hydroxy-5-biphenylyl)propane] , no comment.
Key: 5.66E-06

Exercise: State recorded IC10, linear with MCF7 (ARE/MMP), entry "O=S(=O)(c1ccc(O)cc1)c1ccc(O)cc1" , no comment.
Key: 1.44E-03

Exercise: State recorded IC10, linear with MCF7 (ARE/MMP), entry CC(C)(c1ccc(OCC2CO2)cc1)c1ccc(OCC2CO2)cc1 (stereo not shown) , no comment.
Key: 8.59E-05

Exercise: State recorded IC10, linear with MCF7 (ARE/MMP), entry "Oc1ccc(C(c2ccc(O)cc2)(C(F)(F)F)C(F)(F)F)cc1" , no comment.
Key: 2.87E-05

====

biological target: Estrogen Receptor ERα (Homo sapiens); assay: cell-based; conditions: Bioassay ERα; dosing range high; in M
Provide the recorded EC10, linear transformed for the entries that follow.
Could you respond with only the numeric value?

Exercise: Return reported EC10, linear transformed. Input compound: "CCC(C)(c1ccc(O)cc1)c1ccc(O)cc1"
Key: 5.57E-08

Exercise: Return reported EC10, linear transformed. Input compound: COC(=O)C(c1ccc(O)cc1)c1ccc(O)cc1 [Bz, Methyl bis(4-hydroxyphenyl)acetate]
Key: 1.23E-08

Exercise: Return reported EC10, linear transformed. Input compound: "O=S(=O)(c1ccc(O)cc1)c1ccc(O)cc1"
Key: 1.15E-06

Exercise: Return reported EC10, linear transformed. Input compound: CC(C)(c1ccc(O)cc1)c1ccc(O)cc1 [BPA, 4,4'-(Propane-2,2-diyl)diphenol, reference compound]
Key: 1.46E-07
